Listed next: entries and their corresponding inhibition at 10 µM.
# Subject of test: bradykinin receptor 1 (B1R) of the rat (Rattus norvegicus)
# Construct: expressed in transfected cells; host or cells: CHO K1 cells
# Sequence (P97583 whole entry): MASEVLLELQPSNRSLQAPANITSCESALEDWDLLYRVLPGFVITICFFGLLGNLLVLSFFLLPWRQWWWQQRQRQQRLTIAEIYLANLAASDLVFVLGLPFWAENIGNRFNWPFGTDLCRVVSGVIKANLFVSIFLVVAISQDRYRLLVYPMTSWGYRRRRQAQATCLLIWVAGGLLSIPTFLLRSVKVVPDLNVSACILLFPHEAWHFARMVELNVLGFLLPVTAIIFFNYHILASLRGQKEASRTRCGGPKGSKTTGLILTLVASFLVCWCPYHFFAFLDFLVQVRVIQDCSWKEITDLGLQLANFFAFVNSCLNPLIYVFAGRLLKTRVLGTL
# Test description: Functional study on the bradykinin receptor 1 (B1R), rat: FLIPR Ca2+ influx assay
# Assay type: cell-based
# Condition description: test substance 10 μM; CHO K1 cells transfected with rat B1R; Des-Arg9-bradykinin at EC80; Ca2+ influx (Fluo-4, FLIPR); read-out: B1R antagonism, rat [10 μM] % inhibition

# Molecule, inhibition at 10 µM (%)
records = [
    ("CN(C)C(c1ccc(F)cc1)C1CCC(NC(=O)c2ccccc2N(C)S(=O)(=O)c2ccc(Cl)c(Cl)c2)CC1 (stereo not shown) [Example 37]", 64),
    ("CN(C)C(c1ccc(Cl)cc1)C1CCC(CCNC(=O)c2c(N(C)S(=O)(=O)c3ccc(Cl)c(Cl)c3)sc3c2CCCC3)CC1 (stereo not shown) [Example 50]", 11),
    ("O=C(CC1C(=O)Nc2ccccc2N1S(=O)(=O)c1ccc(Cl)c(Cl)c1)NCC1CCC(C(c2ccccc2)N2CCCC2)CC1 (stereo not shown) [Example 67]", 104),
    ("CN(C)C(c1ccc(F)cc1)C1CCC(CNC(=O)c2c(N(C)S(=O)(=O)c3ccc(Cl)c(Cl)c3)sc3c2CCCC3)CC1 (stereo not shown) [Example 47]", 12),
]
